# Test system: acylase from Arthrobacter aurescens Ac5R
# Method Description: Enzymatic hydrolysis of racemic amides with highly purified acylase from Arthrobacter aurescens Ac5R
# Type: biochemical
# Run Conditions: formed amine, analysed as acetamide by chiral HPLC
Metric Name: e.e. (R)-Amine
Output: the number by itself.

Recorded results for 5 compounds are shown here.
Compound	e.e. (R)-Amine
CC(=O)NC(C)c1ccc(C#N)cc1 (racemic) [Substrate 3a]	95.0
CC(=O)NC1CCOc2ccccc21 (racemic) [Substrate 6a]	90.5
CC(=O)NC(C)c1cccc(C#N)c1 (racemic) [Substrate 2a]	91.5
CC(=O)NC(C)c1ccc2c(c1)OCO2 (racemic) [Substrate 8a]	91.5
CC(=O)NC(C)c1ccccc1 (racemic) [Substrate 1a, N-acetyl 1-phenylethylamine]	98.2

Now take the following compound into account.
The measured e.e. (R)-Amine that CC(=O)NC1CCc2ccccc21 (racemic) [Substrate 5a] showed for acylase from Arthrobacter aurescens Ac5R is 95.7

###

# System Under Test: acylase from Rhodococcus equi Ac6 (Rhodococcus (subgen. Prescottella) equi, UniProt A0A3S5Y3Z2)
# Construct: N-terminus […]
# Sequence (A0A3S5Y3Z2 1-487): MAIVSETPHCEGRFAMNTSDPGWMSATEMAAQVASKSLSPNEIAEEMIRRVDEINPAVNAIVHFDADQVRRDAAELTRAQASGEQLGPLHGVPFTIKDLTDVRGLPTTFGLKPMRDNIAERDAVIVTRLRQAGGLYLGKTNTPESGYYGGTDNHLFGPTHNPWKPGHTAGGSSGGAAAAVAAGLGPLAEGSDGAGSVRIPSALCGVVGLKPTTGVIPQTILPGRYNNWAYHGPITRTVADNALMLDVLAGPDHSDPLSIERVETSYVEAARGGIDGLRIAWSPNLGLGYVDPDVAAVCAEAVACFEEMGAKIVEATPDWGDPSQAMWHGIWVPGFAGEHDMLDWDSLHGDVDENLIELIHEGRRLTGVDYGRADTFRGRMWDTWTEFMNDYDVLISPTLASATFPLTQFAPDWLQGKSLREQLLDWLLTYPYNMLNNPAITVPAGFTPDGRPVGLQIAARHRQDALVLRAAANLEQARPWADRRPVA
# Method Description: Enzymatic hydrolysis of racemic amides with partially purified acylase from Rhodococcus equi Ac6
# Assay type: biochemical
# Design: unit not given here
# Run Conditions: unconverted amide, chiral HPLC
# maps each entry to its e.e. (R)-Amide
A bare number is all that is needed in reply.

Query CC(=O)NC(C)c1ccc2ccccc2c1 (racemic) [Substrate 7a] yields e.e. (R)-Amide of 16.4

The molecule listed as CC(=O)NC(C)c1ccc2c(c1)OCO2 (racemic) [Substrate 8a] has a reported e.e. (R)-Amide of 90.1

###

# System Under Test: Ac6-acylase (Rhodococcus (subgen. Prescottella) equi)
# Sequence (A0A3S5Y3Z2 entry or part of it): as the sequence (A0A3S5Y3Z2 1-487) above
# Method Description: Activity of the Ac6-acylase in the presence of potential enzyme activators and inhibitors
# Type: biochemical
# Run Conditions: compound 10 mM; values in brackets: precipitates formed during the assay; none = 100; read-out: Relative activity (%)
Metric Name: activity at 10000 µM

Some solved cases for reference:
Compound	Result
NC(=O)CI [Iodoacetamide]	32%
OCCS	108%
O[C@H](CS)[C@H](O)CS (racemic)	100%

Entry O=C(O)CC(O)(CC(=O)O)C(=O)O [Citrate] , activity at 10000 µM reported as 91%

###

Catalogue of Relative activity (%) readings, one per entry.
# Tested on: AcR5b-acylase
# Method Description: Stability of the AcR5b-acylase during freezing, with and without cryoprotective agents
# Format: physicochemical, Arthrobacter aurescens AcR5b
# Run Conditions: AcR5b-acylase frozen 2.5 h at -80° C. with the cryoprotective agent of the label (label AcR5b-acylase = none)
Remember to follow the number with its unit.

# count of solved cases: 3
Compound	Result
OC[C@H]1O[C@@](CO)(O[C@H]2O[C@H](CO)[C@@H](O)[C@H](O)[C@H]2O)[C@@H](O)[C@@H]1O	100%
OCC(O)CO [50% Glycerol, Glycerol]	100%
OCC(O)CO [5% Glycerol, Glycerol]	100%

Alright, here's another compound for you.
Summary for this compound, `N.N.O=S(=O)(O)O` : Relative activity (%) is 92%

###

# System: AcR5b-acylase
# Method Description: Stability of the AcR5b-acylase during freezing, with and without cryoprotective agents
# Assay type: physicochemical, Arthrobacter aurescens AcR5b
# Run Conditions: AcR5b-acylase frozen 2.5 h at -20° C. with the cryoprotective agent of the label (label AcR5b-acylase = none)
Metric Name: Relative activity (%)

The examples below pair each entry with its known result.
Molecule	Result
OCC(O)CO [50% Glycerol, Glycerol]	77%
N.N.O=S(=O)(O)O [10% (NH4)2 SO4, (NH4)2 SO4]	100%
OC[C@H]1O[C@@](CO)(O[C@H]2O[C@H](CO)[C@@H](O)[C@H](O)[C@H]2O)[C@@H](O)[C@@H]1O [10% Saccharose, Saccharose]	100%

Next item in the queue.
Entry OCC(O)CO [5% Glycerol, Glycerol] , Relative activity (%) reported as 100%

###

# Test system: AcR5b-acylase
# Method Description: Activity of the AcR5b-acylase in the presence of potential enzyme activators and inhibitors
# Type: biochemical, Arthrobacter aurescens AcR5b
# Run Conditions: compound 1 mM, 30 min preincubation, Tris-HCl pH 8; none = 100
Entries and their Relative activity (%)

Some molecules with recorded Relative activity (%):
Molecule	Relative activity (%)
[Cl][Cd][Cl]	5%
O=C(O)CC(O)(CC(=O)O)C(=O)O [Citrate]	122%

// Relative activity (%) value for `[Cl][Fe]([Cl])[Cl]` : 121%

Relative activity (%) reading for `[Cl][Mn][Cl]` : 99%

`[Cl][Pb][Cl]` yielded Relative activity (%) of 79%

Lab book: Relative activity (%) of `[Cl-].[Cl-].[Zn+2]` noted as < 1.5%

GET /value?item= `[Ca+2].[Cl-].[Cl-]` &field=Relative activity (%) returns 92%

###

# System Under Test: UniProtKB A0A3S5Y3Z2
# Method Description: Activity of the Ac6-acylase in the presence of potential enzyme activators and inhibitors
# Format: biochemical
# Run Conditions: compound 1 mM; 20 mM (S)-N-acetyl-1-phenylethylamine, Tris-HCl pH 8, 120 min; none = 100
Metric Name: Relative activity (%)
Give the number first and the unit second.

Previously resolved entries follow.
Compound	System Under Test	Relative activity (%)
OCCS [Mercaptoethanol]	UniProtKB A0A3S5Y3Z2	104%
NC(=O)CI [Iodoacetamide]	UniProtKB A0A3S5Y3Z2	87%
[Cl][Ni][Cl] [NiCl2]	UniProtKB A0A3S5Y3Z2	40%

// sample [Cl][Pb][Cl] [PbCl2] , its Relative activity (%) was 95%

###

# System Under Test: acylase from Rhodococcus equi Ac6 (Rhodococcus (subgen. Prescottella) equi, UniProt A0A3S5Y3Z2)
# Construct: N-terminus […]
# Method Description: Enzymatic hydrolysis of racemic amides with partially purified acylase from Rhodococcus equi Ac6
# Type: biochemical
# Run Conditions: enantioselectivity of the hydrolysis
Metric Name: Selectivity E

Consider the following illustrative entries.
Molecule	Result
CC(=O)NC(C)c1ccc(C#N)cc1 (racemic) [Substrate 3a]	> 500
CC(=O)NC(C)c1cccc(C#N)c1 (racemic) [Substrate 2a]	> 500

Alright, here's another molecule for you.
Lookup result for CCC(NC(C)=O)c1ccccc1 (racemic) [Substrate 4a] ; measured Selectivity E: > 500

###

# System: Rhodococcus globerulus K1/1 acylase
# Assay type: biochemical
# Run Conditions: compound 10 mM; none = 100
Labelling: Relative activity (%) reported below 90% becomes Yes; at or above becomes No.

Is Relative activity (%) of O=C(O)CC(O)(CC(=O)O)C(=O)O [Citrate] strictly below 90%?
No

# strict comparison: is reported Relative activity (%) < 90%? input = `[Cl-].[Cl-].[Co+2]`
Yes

API: query returns whether the molecule falls strictly under 90% in Relative activity (%). Query: `N[C@@H]1CONC1=O`
No

###

e.e. (R)-Amide: recorded values
# System Under Test: acylase from Rhodococcus equi Ac6 (Rhodococcus (subgen. Prescottella) equi, UniProt A0A3S5Y3Z2)
# Construct: N-terminus […]
# Method Description: Enzymatic hydrolysis of racemic amides with partially purified acylase from Rhodococcus equi Ac6
# Type: biochemical
# Design: unit not given here
# Run Conditions: unconverted amide, chiral HPLC

The examples below pair each entry with its known result.
Compound	e.e. (R)-Amide
CCC(NC(C)=O)c1ccccc1 (racemic) [Substrate 4a]	> 99.9
CC(=O)NC(C)CCc1ccccc1 (racemic) [Substrate 9a]	> 99.9
CC(=O)NC(C)c1cccc(C#N)c1 (racemic) [Substrate 2a]	85.5
CC(=O)NC(C)c1ccc(C#N)cc1 (racemic) [Substrate 3a]	97.4
CC(=O)NC1CCc2ccccc21 (racemic) [Substrate 5a]	96.7

Next item in the queue.
Entry CC(=O)NC(C)c1ccccc1 (racemic) [Substrate 1a, N-acetyl 1-phenylethylamine] ; e.e. (R)-Amide = 99.3

###

# Tested on: AcR5b-acylase
# Method Description: Activity of the AcR5b-acylase in the presence of potential enzyme activators and inhibitors
# Assay type: biochemical, Arthrobacter aurescens AcR5b
# Run Conditions: compound 1 mM, 30 min preincubation, Tris-HCl pH 8; none = 100
Metric Name: Relative activity (%)
The reply should contain only the number, in %.

Solved cases below.
Molecule	Relative activity (%)
OCCS [Mercaptoethanol]	115
O[C@H](CS)[C@H](O)CS (racemic) [Dithiothreitol]	35

Form field Relative activity (%), entry [Ba+2].[Cl-].[Cl-] [BaCl2] : 92

[Cl-].[Cl-].[Mg+2] [MgCl2] yielded Relative activity (%) of 103

Measured Relative activity (%), [Cl][Cu][Cl] [CuCl2] : 50

Record summary for O=S(=O)(F)Cc1ccccc1 [Phenylmethyl-sulfonyl fluoride] : reported Relative activity (%) = 44

###

# Test system: Rhodococcus globerulus K1/1 acylase
# Format: biochemical
# Run Conditions: compound 10 mM; none = 100
Relative activity (%) values by entry

Past entries and their recorded results:
Molecule	Relative activity (%)
[Cl][Mn][Cl] [MnCl2]	83%
[Cl][Cu][Cl] [CuCl2]	50%
[Cl][Fe]([Cl])[Cl] [FeCl3]	37%
[Cl-].[Cl-].[Mg+2] [MgCl2]	87%

What the record says about O=C(O)c1cc[c]([Hg+])cc1.[OH-] [p-hydroxy-mercuribenzoate] : Relative activity (%) is 96%

Notebook: [Cl][Ni][Cl] [NiCl2] , Relative activity (%) read as 80%

Recorded Relative activity (%) (molecule O[C@H](CS)[C@H](O)CS (racemic) [Dithiothreitol] ): 77%

Source of measurements: patent US6235516A
